# reported Kd; entries follow
# system-under-test: T1, EsCas13d, nuclease-dead (Eubacterium siraeum, UniProt B0MS50, R295A;H300A;R849A;H854A)
# T1 sequence: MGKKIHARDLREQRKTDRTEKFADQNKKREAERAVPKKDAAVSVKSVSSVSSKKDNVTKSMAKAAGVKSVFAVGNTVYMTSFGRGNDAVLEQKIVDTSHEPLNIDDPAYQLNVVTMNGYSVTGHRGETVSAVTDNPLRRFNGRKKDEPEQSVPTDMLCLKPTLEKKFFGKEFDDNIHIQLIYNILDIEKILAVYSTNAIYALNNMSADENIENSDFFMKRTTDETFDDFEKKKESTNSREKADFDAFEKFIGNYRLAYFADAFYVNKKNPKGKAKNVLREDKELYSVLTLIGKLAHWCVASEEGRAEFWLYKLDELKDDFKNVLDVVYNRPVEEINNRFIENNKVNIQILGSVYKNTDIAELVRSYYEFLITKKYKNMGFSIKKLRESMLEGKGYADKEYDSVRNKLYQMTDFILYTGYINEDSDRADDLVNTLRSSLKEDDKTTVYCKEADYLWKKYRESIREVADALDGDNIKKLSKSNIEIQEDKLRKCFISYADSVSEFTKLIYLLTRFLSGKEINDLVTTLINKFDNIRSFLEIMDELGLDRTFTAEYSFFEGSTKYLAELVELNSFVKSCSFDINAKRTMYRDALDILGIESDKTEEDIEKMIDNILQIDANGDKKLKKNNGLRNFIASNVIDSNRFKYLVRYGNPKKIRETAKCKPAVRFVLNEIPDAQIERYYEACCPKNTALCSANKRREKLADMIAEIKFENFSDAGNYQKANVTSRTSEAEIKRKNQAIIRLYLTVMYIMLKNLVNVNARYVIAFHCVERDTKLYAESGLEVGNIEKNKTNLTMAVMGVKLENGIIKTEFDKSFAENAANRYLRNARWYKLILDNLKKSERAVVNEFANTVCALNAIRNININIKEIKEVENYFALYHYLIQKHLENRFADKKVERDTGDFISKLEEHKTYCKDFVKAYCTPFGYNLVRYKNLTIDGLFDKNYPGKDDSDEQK
# protocol-text: crRNA (strand 1, pre-loaded); Mg2+; 40 mM Tris-HCl pH 7.5, 150 mM NaCl, 6 mM MgCl2, 1 mM DTT, 0.1% Tween-20, 0.2 mg/ml BSA; 25 C; 10 min per concentration, then washed
# experimental-conditions: tags: His6-TwinStrep-SUMO cleaved; N-terminal SNAP kept (SNAP-Surface 488); label: 3' end held by stalled T7 RNA polymerase
Respond with the bare value in nM.

| binder | result-unit | Kd |
| --- | --- | --- |
| target 1 C7A,U8C (mixed) RNA 1: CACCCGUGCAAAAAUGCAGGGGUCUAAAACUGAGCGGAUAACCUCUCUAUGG RNA 2: GGGAAUGGAUCCACAUCUACGAAUUCGUACCAUAGAGAGGUUACACGCUCACCGAGAUCGGAAGAGCACACGU | nM | 9 |

Now let's try a different one.
### Prompt Can you share its Kd? I mean this binder: target 1 A20U (mixed) RNA 1: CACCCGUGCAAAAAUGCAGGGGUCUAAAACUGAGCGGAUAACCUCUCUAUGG RNA 2: GGGAAUGGAUCCACAUCUACGAAUUCGUACCUUAGAGAGGUUAUCCGCUCACCGAGAUCGGAAGAGCACACGU
### Response 50
